Each item that follows carries a reported TGI.
- System: MCF7 breast
- protocol-text: NCI tumour cell line growth inhibition, 48 h

Worked set:
- O=S1(=O)c2ccccc2N2CCCc3cc(Cl)cc1c32: > 100 µM
- Cn1cnc([N+](=O)[O-])c1Sc1ncnc2nc[nH]c12: > 100 µM
- CC(Nc1cc(Cl)cc(Cl)c1)c1ccncc1 (stereo unspecified): 34.3 µM
- Cn1c(N/N=C/c2ccc(Cl)cc2)nc(-c2ccc(Cl)cc2)c(C#N)c1=O: 67.8 µM
- O=C(O)C(Cc1cccs1)C(=O)O: > 100 µM
- CCC(=O)N1C/C(=C/c2ccc(OC)cc2)C(=O)/C(=C/c2ccc(OC)cc2)C1: 12.2 µM
- CC1CC[C@]2(C(=O)O)CCC3(C)C(=C2[C@H]1C)C=CC1[C@@]2(C)CC[C@H](O)C(C)(C)C2CC[C@]13C (stereo partly specified): > 100 µM
- C/C(=N/O)c1cccc(Nc2nc3ccccc3c3[nH]c4ccccc4c23)c1: 5.63 µM

Next up:
Which TGI is listed for Cc1nc2c(Br)cc(Br)cc2c(=O)n1-c1ccccc1N ? > 100 µM

---

Read-out record for SK-MEL-2 melanoma: GI50

* O=[N+]([O-])/C=C\c1ccc2c(c1)OCO2 | 2.2 µM
* C=C1C(O)C2C(=C(CC(C)C)C13CC3)C(=O)C(C)(C)C2OC (centres undefined) | > 100 µM
* Nc1ccc2c(c1)[O][Sn]([c]1ccccc1)([c]1ccccc1)[O]C2=O | 6.19 µM

Next up:
Which GI50 is listed for OCC1OC(N2C=C(c3nc4ccccc4s3)C3C=CC=CC32)C(O)C1O (centres undefined) ? 29.7 µM

---

Each item that follows carries a reported TGI.
- Tested on: SK-MEL-5 melanoma
- protocol-text: NCI tumour cell line growth inhibition, 48 h

Worked set:
* CN(C)c1ccc(/C=N/NC2=N/C(=C\c3ccco3)C(=O)N2)cc1 | > 100 µM
* COc1cc2[nH]c(-c3ccccc3)cc(=O)c2cc1OC | 54.4 µM
* CCCCCCCCCC[C@@H](O)[C@@H]1CC[C@@H]([C@@H]2CC[C@@H]([C@@H](O)CCCCCCCCCCC(O)CC3=CC(C)OC3=O)O2)O1 (stereo partly specified) | 2.92 µM
* Cc1ccc(N2C(=O)C(Cl)=C(Nc3cccc(O)c3)C2=O)cc1Cl | 28.9 µM

Which TGI is listed for C/C(=N/O)c1cccc(Nc2nc3ccccc3c3[nH]c4ccccc4c23)c1 ? 4.08 µM

Which TGI is listed for N#CC1C(N)=NNC1c1ccc(-c2ccc(-c3nc4ccccc4o3)cc2)o1 (stereo unspecified) ? 60.5 µM

Which TGI is listed for S=C1CC(c2ccc(Cl)cc2)Sc2ccccc2N1 (stereo unspecified) ? > 100 µM

Which TGI is listed for COc1ccc(N=C/C=C/Nc2ccc(OC)cc2)cc1 ? 19.5 µM

---

- Tested on: DMS 114 small cell lung
- protocol-text: NCI tumour cell line growth inhibition, 48 h
Each item that follows carries a reported TGI.

Quick check: TGI on DMS 114 small cell lung, item COC(=O)c1ccc(OCc2ccc3oc(=O)c(-c4ccccc4)nc3c2)cc1 ? > 100 µM

Quick check: TGI on DMS 114 small cell lung, item COC(=O)/C(=N/NC(C)(C)C)C(C(=O)C=C(C)C)C(=O)C(=O)Nc1ccc(Cl)cc1C (centres undefined) ? > 100 µM

Quick check: TGI on DMS 114 small cell lung, item CCCCS(=N)(=O)CC[C@H](N)C(=O)O (some centres undefined) ? > 5000 µM

Quick check: TGI on DMS 114 small cell lung, item CCCc1ccc(N=Cc2cc(OC)c(OC)c(OC)c2)cc1 ? > 60.6 µM

Quick check: TGI on DMS 114 small cell lung, item CCCN(CCCCC(NC(C)=O)C(=O)NCc1ccccc1)C(=O)NC (centres undefined) ? > 100 µM

Quick check: TGI on DMS 114 small cell lung, item C=CCN(N=O)C(=O)N(CCC)CCCC(NC(C)=O)C(=O)NCc1ccccc1 (centres undefined) ? > 100 µM

Quick check: TGI on DMS 114 small cell lung, item COc1ccc(N=Cc2ccc(N(CCC#N)CCC#N)cc2)cc1 ? > 100 µM

Quick check: TGI on DMS 114 small cell lung, item Cc1cc2occ(C)c(=O)c2c2c1OC(C)(C)S2 ? > 100 µM

Quick check: TGI on DMS 114 small cell lung, item CCc1cccc(C)c1NC(=O)CC1Sc2ccccc2NC1=O (centres undefined) ? > 100 µM

---

Each item that follows carries a reported TGI.
- Tested on: RXF 393 renal
- protocol-text: NCI tumour cell line growth inhibition, 48 h
Expressed in µM, but write only the number.

Which TGI is listed for COc1cccc2c(=O)c3c(sc12)c(NCCCN)nc1ccccc13 ? 2.96

Which TGI is listed for O=[N+]([O-])/C=C\c1ccc2c(c1)OCO2 ? 3.1

Which TGI is listed for c1ccc(COc2ccc3[nH]c4c(ncc5[nH]c6ccccc6c54)c3c2)cc1 ? 23.3

Which TGI is listed for NC(N)=N/N=C/c1c(-c2cc(Cl)sc2Cl)nc2n1CCS2 ? 22.4

Which TGI is listed for Cc1ccc2c3c1O[C@H]1c4nc5ccccc5cc4C[C@@]4(O)[C@@H](C2)N(CC2CC2)CC[C@]314 ? 21.1

---

Each item that follows carries a reported TGI.
- System: SF-268 CNS
- protocol-text: NCI tumour cell line growth inhibition, 48 h
Expressed in µM, but write only the number.

• CN(C)CCNc1cccc2sc3ccc(O)cc3c(=O)c12 = 14.6
• O=[N+]([O-])C(=C(NCc1ccccc1)NCc1ccccc1)C(Cl)=C(Cl)Cl = 69.4
• Nc1ccc2c(c1)[O][Sn]([c]1ccccc1)([c]1ccccc1)[O]C2=O = 21.2
• COc1ccc(N=C/C=C/Nc2ccc(OC)cc2)cc1 = 21.3

Next up:
Quick check: TGI on SF-268 CNS, item OC1CCC(C2C3CCCCC3C3CCCCC3C2C2CCC(O)CC2)CC1 (configuration not stated) ? 14.5

---

Read-out record for 786-0 renal: GI50

• O=C(N/N=C/c1ccc(F)cc1)c1[nH]c2ccc(I)cc2c1-c1ccccc1 = 0.475 µM
• OCC1OC(N2C=C(c3nc4ccccc4s3)C3C=CC=CC32)C(O)C1O (stereo not drawn) = 8.68 µM
• N#CC1C(N)=NNC1c1ccc(-c2ccc(-c3nc4ccccc4o3)cc2)o1 (stereo not drawn) = > 100 µM
• CC/C=C\C[C@H](O)C/C=C1/C(=O)C=C[C@@H]1C/C=C\CCCC(N)=O = 1.94 µM
• Cc1ccc(N2C(=O)C(Cl)=C(Nc3cccc(O)c3)C2=O)cc1Cl = 19.3 µM
• O=C(Nc1ccc(Br)cc1)c1cc(Br)cc(Br)c1O = 3.02 µM
• CN(C)CCNc1cccc2sc3ccc(O)cc3c(=O)c12 = 2.23 µM

Next up:
Quick check: GI50 on 786-0 renal, item [Cl][Sn]([c]1ccccc1)[c]1ccccc1 ? 3.79 µM

---

- System: M14 melanoma
- protocol-text: NCI tumour cell line growth inhibition, 48 h
recorded-endpoint: TGI (µM)
Expressed in µM, but write only the number.

Worked set:
- O=[N+]([O-])C(=C(NCc1ccccc1)NCc1ccccc1)C(Cl)=C(Cl)Cl: 75.8
- CC(Nc1cc(Cl)cc(Cl)c1)c1ccncc1 (stereo not given): 33.4
- COc1cccc(C2c3cc4c(cc3OC(N3CCOCC3)C2C)OCO4)c1O (stereo not given): 25
- COC(=O)C(Cc1ccccc1)NC(=O)CNC(=O)CSc1nnc(COc2ccc(Cl)cc2)n1-c1ccccc1 (stereo not given): 31.7
- Cn1nnnc1[N-]Cc1ccccc1.[Au+].c1ccc([PH+](c2ccccc2)c2ccccc2)cc1: 3.83

Next up:
Which TGI is listed for CCOC(=O)/C(C1=CC(=O)C(=O)c2ccccc21)=C(/C)NCc1ccccc1 ? 3.17

---

- Test system: SNB-75 CNS
- protocol-text: NCI tumour cell line growth inhibition, 48 h
recorded-endpoint: TGI

* c1cc(-c2sc(-c3ccncc3)c(-c3ccncc3)c2-c2ccncc2)ccn1 | 40.9 µM
* Nc1ccc2c(c1)[O][Sn]([c]1ccccc1)([c]1ccccc1)[O]C2=O | 18.9 µM
* c1c[nH]c(Cc2ncc(Cc3cnc[nH]3)[nH]2)n1 | > 100 µM

Next up:
Which TGI is listed for COc1ccc2c(c1)CC[C@@H]1[C@@H]2CC[C@]2(C)/C(=N/OCCN3CCCCC3)CC[C@@H]12 ? 18.2 µM

---

- Tested on: DLD-1 colon
- protocol-text: NCI tumour cell line growth inhibition, 48 h
recorded-endpoint: TGI

Which TGI is listed for CCOC(OC1=C(C#N)CCC1)C(CC)[Se]c1ccccc1 (configuration not stated) ? 41.2 µM

Which TGI is listed for CCOC(=O)C(=O)Nc1c(C)cccc1CC ? > 100 µM

Which TGI is listed for CC[C@@]1(OC(=O)CCC(=O)O)C(=O)OCc2c1cc1n(c2=O)Cc2cc3ccccc3nc2-1 ? > 100 µM

Which TGI is listed for c1ccc(COc2ccc3[nH]c4c(ncc5[nH]c6ccccc6c54)c3c2)cc1 ? 17.7 µM
